- experimentalTarget: T1, huIL-17RA-FLAG-polyHis (human, UniProt Q96F46 33-320)
- T1 construct: also called IL-17RA-FLAG-pHis; wild-type IL-17RA
- assayName: binning; IL-17RA held by bead mAb B
propertyName: normalized MFI

Looking up AMH16/AML16 (antibody, IgG2, V domains shown, human mAb from IgG2 XenoMouse mice; also called AM-16; antibody O) VH: QVQLVQSGAEVKKPGASVKVSCKASGYTFTSYGISWVRQAPGQGLEWMGWISAYNGNTKYAQKLQGRVTMTTDTSTSTVYMELRSLRSDDTAVYYCARKQLVFDYWGQGTLVTVSS VL: EIVMTQSPATLSVSPGERATLSCRASQSISTSLAWYQQKPGQAPRLLIYGTSTRATGIPARFSGSGSGTEFTLTISSLQSEDFAVYFCQQYDIWPLTFGGGTKVEIK , I found its normalized MFI recorded as 630

Measured normalized MFI, AMH12/AML12 (antibody, IgG2, V domains shown, human mAb from IgG2 XenoMouse mice; also called AM-12; antibody M) VH: QVQLVQSGAEVKKPGASVKVSCKASGYTLTSYGISWVRQAPGQGLEWMGWISTYKGNTNYAQKLQGRVTMTTDTSTSTAYMELRSLRSDDTAVYYCARKQLVFDYWGQGTLVTVSS VL: EIVMTQSPATLSVSPGERATLSCRASQSISSSLAWYQQKPGQAPRLLIYGASTRATGIPARFSGSGSGTEFTLTISSLQSENFAVYYCQQYDNWPLTFGGGTKVEIK : 455

Data point: AMH20/AML20 (antibody, IgG2, V domains shown, human mAb from IgG2 XenoMouse mice; also called AM-20; antibody R) VH: EVQLVESGGGLVQPGGSLRLSCAASGFTFSSYSMNWVRQAPGKGLEWVSFISARSSTIYYADSVKGRFTISRDNAKNSLYLQMNSLRDEDTAVYYCARPKVGGGMDVWGQGTTVTVSS VL: DIQMTQSPSSLSASVGDRVTITCRASQGISNYLAWYQQKPGKFPELLIYAASTLQSGVPSRFSGSGSGTDFTLTISSLQPEDVATYYCQKYNRAPFTFGPGTKVDIK ; normalized MFI = 1060

Record AMH21/AML21 (antibody, IgG2, V domains shown, human mAb from IgG2 XenoMouse mice; also called AM-21; antibody Q) VH: EVQLVESGGGSVQPGGSLRLSCAASGFTFSSYSMNWVRQAPGKGLEWVSIISSRSSIIHYADSVKGRFTISRDNAKNSLYLQMNSLRDEDTAVYYCARPKVGGGMDVWGQGTTVTVSS VL: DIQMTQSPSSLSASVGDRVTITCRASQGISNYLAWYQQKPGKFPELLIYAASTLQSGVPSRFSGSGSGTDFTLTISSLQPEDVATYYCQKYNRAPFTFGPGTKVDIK , field normalized MFI: 1900

Given item AMH10/AML10 (antibody, IgG2, V domains shown, human mAb from IgG2 XenoMouse mice; also called AM-10; antibody F) VH: QVQLQESGPGLVKPSQTLSLTCTVSGGSISSGGYYWSWIRQHPGKGLEWIGYIYFSGSAYYNPSLKSRVAISVDTSKNQFSLKLSSVTAADTAVYYCAREYYDSSGYPDAFDIWGQGTMVTVSS VL: DIQMTQSPSSVSASVGDRVTITCRASQGIRSWLAWYQQKPGKAPKLLIFAASSLQSGVPSRFSGSGSGTEFTLTISSLQPEDFATYYCQQANNFPRTFGQGTKVEIK , the value recorded as its normalized MFI is 545

Per the record, AMH6/AML6 (antibody, IgG2, V domains shown, human mAb from IgG2 XenoMouse mice; also called AM-6; antibody E) VH: QVQLVQSGAEVKKPGASVKVSCKASGYTLTRYGISWVRQAPGQGLEWMGWISAYNGNTNYAQKLQGRVTMTTDTSTSTAYMELRSLRSDDTAVYYCARRDYDILTGYYNGFDPWGQGTLVTVSS VL: DIQMTQSPSSLSASVGDRVTITCRASQGIRNDLGWYQQKPGKAPKRLIYAASSLQSGVPSRFSGSGSGTEFTLTISSLQPEDFATYYCLQHKSYPLTFGGGTKVEIK has normalized MFI of 447

Query AMH11/AML11 (antibody, IgG2, V domains shown, human mAb from IgG2 XenoMouse mice; also called AM-11; antibody A) VH: QVQLVESGGGVVQPGRSLRLSCATSGITFSSYGMHWVRQAPGKGLEWVAVIWYDGSNKYYADSVKGRFTISRDNSKNTLYLQMNSLRAEDTAVYYCARDTKDYWGQGTLVTVSS VL: EIVMTQSPATLSVSPGERATLSCRASQSVSSNLAWYQQKPGQAPRLLIYGASTRAAGIPARFSGGGSGTAFTLTISNLQSEDFAVYYCQHYINWPKWTFGQGTKVDIK yields normalized MFI of 1200

Recorded result, AMH8/AML8 (antibody, IgG2, V domains shown, human mAb from IgG2 XenoMouse mice; also called AM-8; antibody C) VH: QVQLVQSGAEVKKPGASVKVSCKASGNTFTGYGISWVRQAPGQGLEWMGWISAYNGNTNYAQNLQGRVTMTTDTSTSTAYMELRSLRSDDTAVYYCARRDYDILTGYYNGFDPWGQGTLVTVSS VL: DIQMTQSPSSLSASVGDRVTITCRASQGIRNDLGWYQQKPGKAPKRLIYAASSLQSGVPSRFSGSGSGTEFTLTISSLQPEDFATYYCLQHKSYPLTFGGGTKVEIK , normalized MFI: 816

Briefly, normalized MFI measured for AMH7/AML7 (antibody, IgG2, V domains shown, human mAb from IgG2 XenoMouse mice; also called AM-7; antibody D) VH: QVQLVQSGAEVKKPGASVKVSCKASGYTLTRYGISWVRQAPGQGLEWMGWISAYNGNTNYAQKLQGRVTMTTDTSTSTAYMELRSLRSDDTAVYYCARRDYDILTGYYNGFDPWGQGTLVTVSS VL: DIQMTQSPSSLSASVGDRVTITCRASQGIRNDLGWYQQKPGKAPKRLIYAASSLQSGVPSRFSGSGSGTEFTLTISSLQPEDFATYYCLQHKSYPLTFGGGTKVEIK : 684
